- Target System: T1, human B7-H3 (4Ig-B7-H3 variant) (Homo sapiens, UniProt Q5ZPR3)
- T1 construct: His tag (6xHis) (C)
- T1 sequence (Q5ZPR3 with tags, fused parts or gaps): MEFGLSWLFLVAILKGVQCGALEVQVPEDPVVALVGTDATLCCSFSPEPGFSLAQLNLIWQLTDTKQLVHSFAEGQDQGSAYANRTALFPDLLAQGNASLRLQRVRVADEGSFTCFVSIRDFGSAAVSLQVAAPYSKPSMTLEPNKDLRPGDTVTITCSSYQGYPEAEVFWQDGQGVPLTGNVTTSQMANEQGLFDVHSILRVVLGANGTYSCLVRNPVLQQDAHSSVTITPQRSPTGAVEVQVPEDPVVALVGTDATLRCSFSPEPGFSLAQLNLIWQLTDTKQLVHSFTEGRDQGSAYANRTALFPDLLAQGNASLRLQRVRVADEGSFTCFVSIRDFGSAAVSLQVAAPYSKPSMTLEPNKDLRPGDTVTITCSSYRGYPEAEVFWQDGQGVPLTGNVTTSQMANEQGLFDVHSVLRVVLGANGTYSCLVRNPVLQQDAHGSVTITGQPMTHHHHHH
- Run Description: Biacore T200 SPR binding kinetics, mAb capture, soluble ECD of human B7-H3
- Experimental Setup: 1:1 binding model
We begin with a simple list: items and their reported kd (1/s) huB7-H3.
Phrase the answer as number then unit, nothing more needed.

Molecule	kd (1/s) huB7-H3
Ab5: murine anti-B7-H3 mAbs; mouse hybridoma derived (antibody, V domains shown) VH: QVQLQQPGDELVKPGASVKLSCKTSGYTFTTDWMHWVKQRPGQGLEWIGMIHPNSGTTNYNEKFKSKAALTVDKSSSTACMQLSSLTSEDSAVYYCARSYWKWYFDVWGTGTTVTVSS VL: QIVLTQSPAIMSASLGEEITLTCSASSSVSYMHWYQQKSGTSPKLLIYSTSNLASGVPSRFSGSGSGTFYSLTISSVEAEDSADYYCHQWTSYMYTFGGGTKLEIK	0.012 s⁻¹
Ab8: murine anti-B7-H3 mAbs; mouse hybridoma derived (antibody, V domains shown) VH: EVKLVESGGGLVKPGGSLKLSCAASGFTFSSYGMSWVRQTPEKRLEWVATISGGGNYTYCPDSVKGRFTISRDNAKNNLYLQMSSLRSEDTALYYCTRQRGYDYHYAMDFWGQGTSVTVSS VL: DIQMTQSPASLSVSVGETVTITCRASENIYSNLAWHQQKQGKSPQLLVYAATNLADGVPSRFSGNGSDTQYSLKINSLQSEDFGSYFCQNFWGTSWTFGGGTKLEIK	9.9e-05 s⁻¹
Ab13: mouse hybridoma derived anti-B7-H3 monoclonal antibodies (mAbs) (antibody, V domains shown) VH: DVQLQESGPDLVKPSQSLSLTCTVTGYSITSGYSWHWIRQFPGNKLEWMGYIHSSGSTNYNPSLKSRISINRDTSKNQFFLQLNSVTTEDTATYYCAGYDDYFEYWGQGTTLTVSS VL: DIVMTQSQKFMSTSVGDRVSVTCKASQNVGFNVAWYQQKPGQSPKALIYSASYRYSGVPDRFTGSGSGTDFTLTISNVQSEDLAEYFCQQYNSYPFTFGSGTKLEIK	0.0058 s⁻¹
Ab14: mouse hybridoma derived anti-B7-H3 monoclonal antibodies (mAbs) (antibody, V domains shown) VH: EVKLVESGGGLVKPGGSLKLSCAASGFTFSSYGMSWVRQTPEKRLEWVATISGGGTNTYYPDSVEGRFTISRDNAKNFLYLQMSSLRSEDTALYYCARHYGSQTMDYWGQGTSVTVSS VL: DIQMTQSPASLSASVGETVTITCRTSGNIHNYLTWYQQKQGKSPQLLVYNAKTLADGVPSRFSGSGSGTQFSLKINSLQPEDFGSYYCQHFWSIMWTFGGGTKLEIK	0.0014 s⁻¹

Q: # input molecule: Ab16: mouse hybridoma derived anti-B7-H3 monoclonal antibodies (mAbs) (antibody, V domains shown) VH: EVKLLESGGGLVQPGGSLKLSCAASGFDFSRYWMSWVRQAPGKGLEWIGEINPDSSTINYTPSLKDKFIISRDNAKNTLYLQMSKVRSEDTALYYCARPGFGNYIYAMDYWGQGTSVTVSS VL: DIQMTQTTSSLSASLGDRVTINCRASQDISNFLNWYQQKPDGTVKLLIYYTSRLYLGVPSRFSGSGSGTDYSLTISNLEQEDIATYFCQQGNTLPPTFGGGTKLEIK ; wanted: its kd (1/s) huB7-H3
Ans: 0.0032 s⁻¹

Source: patent US20200338209A1
